molecular target: Bek (Homo sapiens); assay: Inhibitory activity against Bek-autophosphorylation using ELISA method in OCUM-2MD3 cells; conditions: 1 hr with compound, read-out: IC50 (concentration necessary for inhibiting 50% of Bek-phosphorylation)
Sequence (P21802 431-767 limits assumed): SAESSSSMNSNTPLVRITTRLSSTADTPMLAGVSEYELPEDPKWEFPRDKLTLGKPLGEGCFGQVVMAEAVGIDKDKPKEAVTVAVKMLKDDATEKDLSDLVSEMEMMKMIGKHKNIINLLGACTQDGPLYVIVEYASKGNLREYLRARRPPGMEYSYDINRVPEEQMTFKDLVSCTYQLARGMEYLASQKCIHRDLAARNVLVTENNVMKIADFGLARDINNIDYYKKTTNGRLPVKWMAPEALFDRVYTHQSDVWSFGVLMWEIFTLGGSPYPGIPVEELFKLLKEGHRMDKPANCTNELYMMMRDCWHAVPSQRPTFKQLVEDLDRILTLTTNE
pIC50: −log10 of the molar value. Counter-ions that a name gives are not always drawn.
// label = satisfied if pIC50 is not less than 7, otherwise not satisfied

Task item: Identify whether the reported pIC50 of the following compound is 7 or greater: COc1cc2c(Oc3ccc(NC(=O)NC4CCCC(C)(C)C4)c(F)c3)ccnc2cc1OCCN1CCOCC1 (stereo not drawn) [Compound 133]
Reply: satisfied

Task item: Identify whether the reported pIC50 of the following compound is 7 or greater: COc1cc2c(Oc3ccc(NC(=O)NCCC(C)(C)C)cc3)ccnc2cc1OCCCN1CCC(c2ccccc2)CC1 [Compound 246]
Reply: satisfied

Task item: Identify whether the reported pIC50 of the following compound is 7 or greater: COc1cc2c(Oc3ccc(Nc4ccc(C(C)(C)C)cc4)cc3)ccnc2cc1OCCN1CCC(OC)CC1 [Compound 280]
Reply: not satisfied

Task item: Identify whether the reported pIC50 of the following compound is 7 or greater: COc1cc2c(Oc3ccc(NC(=O)NCCC(C)(C)C)cc3)ccnc2cc1OCCCCN1CCN(C)CC1 [Compound 159, hydrochloride]
Reply: satisfied

Task item: Identify whether the reported pIC50 of the following compound is 7 or greater: COc1cc2c(Oc3ccc(Nc4ccc(C(C)(C)C)cc4)cc3)ccnc2cc1OCCN1CC(C)CC(C)C1 (stereo not drawn) [Compound 239]
Reply: not satisfied

Task item: Identify whether the reported pIC50 of the following compound is 7 or greater: COc1cc2c(Oc3ccc(NC(=O)NCCC(C)(C)C)cc3)ccnc2cc1OCCCN1CCC(O)CC1 [Compound 96]
Reply: satisfied

Task item: Identify whether the reported pIC50 of the following compound is 7 or greater: COc1cc2c(Oc3ccc(Nc4ccc(C(C)(C)C)cc4)c(F)c3)ccnc2cc1OCCCN1CCC(CO)CC1 [Compound 290]
Reply: not satisfied

Task item: Identify whether the reported pIC50 of the following compound is 7 or greater: COc1cc2c(Oc3ccc(Nc4ccc(C(C)(C)C)cc4)cc3)ccnc2cc1O [Compound 21]
Reply: not satisfied

Task item: Identify whether the reported pIC50 of the following compound is 7 or greater: COc1cc2c(Oc3ccc(Nc4ccc(C(C)(C)C)cc4)c(Cl)c3)ccnc2cc1OCCN(CCO)CCO [Compound 337]
Reply: not satisfied

Task item: Identify whether the reported pIC50 of the following compound is 7 or greater: COc1cc2c(Oc3ccc(NC(=O)NCCC(C)(C)C)cc3)ccnc2cc1OCCCN1CCC[C@H]1CO [Compound 263]
Reply: satisfied

Task item: Identify whether the reported pIC50 of the following compound is 7 or greater: COc1cc2c(Oc3ccc(Nc4ccc(C(C)(C)C)cc4)cc3)ccnc2cc1OCC1CCCN(C)C1 (stereo not drawn) [Compound 56]
Reply: not satisfied

Task item: Identify whether the reported pIC50 of the following compound is 7 or greater: COc1cc2c(Oc3ccc(NC(=O)NCCC(C)(C)C)c(Cl)c3)ccnc2cc1OCCCN1CCOCC1 [Compound 205]
Reply: satisfied

Task item: Identify whether the reported pIC50 of the following compound is 7 or greater: COc1cc2c(Oc3ccc(Nc4ccc(C(C)(C)C)cc4)cc3)ccnc2cc1OCCCN1CCCCC1 [Compound 34]
Reply: not satisfied

Task item: Identify whether the reported pIC50 of the following compound is 7 or greater: COc1cc2c(Oc3ccc(Nc4ccc(C(C)(C)C)cc4)cc3)ccnc2cc1OCCCN1CCN(C)CC1 [Compound 35]
Reply: not satisfied

Task item: Identify whether the reported pIC50 of the following compound is 7 or greater: CCC(CO)(CO)NCCOc1cc2nccc(Oc3ccc(Nc4ccc(C(C)(C)C)cc4)cc3)c2cc1OC [Compound 351]
Reply: not satisfied

Task item: Identify whether the reported pIC50 of the following compound is 7 or greater: CCN(CCO)CCCOc1cc2nccc(Oc3ccc(NC(=O)NCCC(C)(C)C)c(F)c3)c2cc1OC [Compound 344]
Reply: satisfied

Task item: Identify whether the reported pIC50 of the following compound is 7 or greater: COc1cc2c(Oc3ccc(NC(=O)NCCC(C)(C)C)cc3)ccnc2cc1OCC(O)CN1CCC(Cc2ccccc2)CC1 (stereo not drawn) [Compound 260]
Reply: satisfied

Task item: Identify whether the reported pIC50 of the following compound is 7 or greater: COc1cc2nccc(Oc3ccc(Nc4ccc(C(C)(C)C)cc4)cc3)c2cc1O [Compound 214]
Reply: satisfied

Task item: Identify whether the reported pIC50 of the following compound is 7 or greater: COc1cc2ncnc(Oc3ccc(Nc4ccc(C(C)C)cc4)cc3)c2cc1OC [Compound 72]
Reply: not satisfied

Task item: Identify whether the reported pIC50 of the following compound is 7 or greater: COc1cc2c(Oc3ccc(Nc4ccc(C(C)(C)C)cc4)c(F)c3)ccnc2cc1OCCCN1CCC(CCO)CC1 [Compound 306]
Reply: not satisfied

Task item: Identify whether the reported pIC50 of the following compound is 7 or greater: COc1cc2nccc(Oc3ccc(NC(=O)NCCC(C)(C)C)cc3F)c2cc1OC [Compound 102]
Reply: satisfied

Task item: Identify whether the reported pIC50 of the following compound is 7 or greater: COc1cc2nccc(Oc3ccc(Nc4ccc(C(C)(C)C)cc4)cc3)c2cc1OCCN(CCO)CCO [Compound 358]
Reply: satisfied

Task item: Identify whether the reported pIC50 of the following compound is 7 or greater: COc1cc2nccc(Oc3ccc(NC(=O)NCCC(C)(C)C)cc3OC)c2cc1OC [Compound 139]
Reply: not satisfied

Task item: Identify whether the reported pIC50 of the following compound is 7 or greater: COc1cc2c(Oc3ccc(NC(=O)NCCC(C)(C)C)c(Cl)c3)ccnc2cc1OCCCCN1CCOCC1 [Compound 320]
Reply: satisfied

Task item: Identify whether the reported pIC50 of the following compound is 7 or greater: COc1cc2c(Oc3ccc(Nc4ccc(C(C)(C)C)cc4)cc3)ccnc2cc1OCC(O)CN1CCCN(C)CC1 (stereo not drawn) [Compound 65]
Reply: not satisfied

Task item: Identify whether the reported pIC50 of the following compound is 7 or greater: COc1cc2c(Oc3ccc(NC(=O)NCCC(C)(C)C)cc3)ccnc2cc1OCCNC(C)CO (stereo not drawn) [Compound 361]
Reply: satisfied

Task item: Identify whether the reported pIC50 of the following compound is 7 or greater: COc1cc2c(Oc3ccc(NC(=O)NCCC(C)(C)C)c(Cl)c3)ccnc2cc1OC[C@H](O)CN1CCOCC1 [Compound 201]
Reply: satisfied

Task item: Identify whether the reported pIC50 of the following compound is 7 or greater: COc1cc2c(Oc3ccc(NC(=O)NCCC(C)(C)C)c(F)c3)ccnc2cc1OCCCN1CCOCC1 [Compound 88, hydrochloride]
Reply: satisfied
